Numbers sourced from paper PMC5540273.

# System: JAK1(JH2domain-pseudokinase)
# studyConditions: concentration: 1 μM, replicates: in singlicate; n = 1;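 note: KINOMEscan kinase panel screen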
%Inh overview
The reply should be a number in %, with the unit left off.

Item COc1ccc(CNC(=O)NC2CCN(c3ccnc(Nc4ccc(F)cc4)n3)C2)cc1 (centres unmarked) [GSK1379706] has what recorded %Inh?
0

Further, for COc1cc2ncn(-c3cc(OCCCc4ccccc4)c(C(N)=O)s3)c2cc1OC [GSK205189] ?
0

Further, for Cc1ccc(Oc2ccc(Nc3ncnc4cc[nH]c34)cc2C)cn1 ?
24

Further, for COC(=O)c1c(-c2ccccc2)c2cc(Br)ccc2c(=O)n1Cc1ccc(S(C)(=O)=O)cc1 ?
0

Further, for CN1C(=O)C(Nc2cc(Cl)c(O)c(Cl)c2)=C(c2ccc(Cl)cc2)C1=O [SB-404321] ?
0

* * *

# System: SRPK3
# studyConditions: concentration: 1 μM, replicates: in singlicate; n = 1
assayReadout: %Inh
Quick note: number first, unit second.

Past entries and their recorded results:
smilesRepresentation	result
COc1cc(OC)cc(-c2cc3cnc(N)nc3nc2NC(=O)NC(C)(C)C)c1	0%
COc1cc2ncn(-c3cc(OCc4ccncc4)c(C(N)=O)s3)c2cc1OC	0%
Fc1cccc(CSc2nnc(-c3ccc4c(c3)CCO4)o2)c1	16%
COc1cc2ncn(-c3cc(OCc4ccncc4Br)c(C(N)=O)s3)c2cc1OC	28%

Item Cc1cc(Nc2nc(-c3cccc(C)n3)nc3ccccc23)ccn1 has what recorded %Inh?
13%

* * *

# Test system: LIMK2
# studyConditions: concentration: 1 μM, replicates: in singlicate; n = 1
assayReadout: %Inh (%)
The reply should be a number in %, with the unit left off.

Past entries and their recorded results:
compound	tgt	%Inh / %
Cc1c(Cn2c(C)nn3c(=O)cc(N4CCO[C@H](C)C4)nc23)cccc1C(F)(F)F [GSK2373690]	LIMK2	0
Cc1nc(N(C)[C@H]2CN(C(=O)CC#N)CC[C@H]2C)c2cc[nH]c2n1	LIMK2	16
Cc1nnc(-c2ccc(C)c(-c3ccc(C(=O)O)cc3)c2)o1 [GW608005]	LIMK2	0
CCC(=O)c1c(-c2ccccc2)c2cc(Cl)ccc2c(=O)n1Cc1cc(S(C)(=O)=O)n(CC(N)=O)n1	LIMK2	0
CN(C)c1cc(-c2ccc3c(N)n[nH]c3c2)nc(N)n1 [GSK2219329]	LIMK2	14
C[C@@H]1CC[C@H](C(=O)NC2CCCCC2)CN1c1cc(-c2ccc3c(N)n[nH]c3c2)nc(N)n1 [GSK2291363]	LIMK2	11
COc1cc(OC)cc(-c2cc3cnc(N)nc3nc2NC(=O)NC(C)(C)C)c1	LIMK2	0
Cc1nn2c(=O)cc(N3CCOCC3)nc2n1Cc1cccc(Cl)c1Cl [GSK2342769]	LIMK2	0

Item COc1cc2ncn(-c3cc(OCc4ccncc4Br)c(C(N)=O)s3)c2cc1OC [GW854278] has what recorded %Inh?
8

Further, for CCn1c(-c2ccoc2)nc2cnccc21 [SB-733887] ?
6

* * *

# System: GSK3B
# studyConditions: concentration: 1 μM, replicates: in singlicate; n = 1
assayReadout: %Inh
Quick note: number first, unit second.

Past entries and their recorded results:
molecule	result
CCC(=O)c1c(-c2ccccc2)c2cc(Cl)ccc2c(=O)n1Cc1cc(S(C)(=O)=O)n(CC(F)F)n1	0%
COc1ccc(CNC(=O)NC2CCN(c3ccnc(Nc4ccc(F)cc4)n3)C2)cc1 (stereo not drawn)	1%
COc1cc2nccc(Nc3cccc(Oc4ccccc4)c3)c2cc1OC.Cl	0%
CN1C(=O)C(Nc2ccccc2)=C(c2ccccc2)C1=O	3%

Item Cc1c(Cn2c(C)nn3c(=O)cc(N4CCO[C@H](C)C4)nc23)cccc1C(F)(F)F has what recorded %Inh?
6%

Further, for O=c1cc(N2CCOCC2)nc2n(Cc3ccc(F)c(Cl)c3)ccn12 ?
8%

* * *

# Test system: WNK1
# studyConditions: concentration: 1 μM, replicates: in singlicate; n = 1
assayReadout: %Inh (%)
The reply should be a number in %, with the unit left off.

Past entries and their recorded results:
molecule	unitString	%Inh
Cc1ccc(Oc2ccc(Nc3ncnc4cc[nH]c34)cc2C)cn1	%	0
COc1cc2ncn(-c3cc(OCCCc4ccccc4)c(C(N)=O)s3)c2cc1OC	%	0
COc1ccc(Nc2nccc(N3CCC(NS(=O)(=O)c4ccc(NC(C)=O)cc4)C3)n2)cc1 (centres unmarked)	%	24

Item COc1cc2ncn(-c3cc(OCc4ccncc4)c(C(N)=O)s3)c2cc1OC has what recorded %Inh?
7

Further, for Cn1c(=O)c(F)c(Nc2ccc(I)cc2F)c2c(=O)n(OC[C@H](O)CO)cnc21 ?
0

* * *

# System: WNK1
# studyConditions: concentration: 1 μM, replicates: in singlicate; n = 1
assayReadout: %Inh (%)
The reply should be a number in %, with the unit left off.

Past entries and their recorded results:
molecule	unitString	numericValue
COc1cc2nccc(Nc3cccc(Oc4ccccc4)c3)c2cc1OC.Cl [GW284543]	%	0
CC(C)(C)c1ccc(C(=O)Nc2cn3cc(-c4ccccc4)ccc3n2)cc1	%	0
C[C@@H]1CC[C@H](C(=O)NC2CCCCC2)CN1c1cc(-c2ccc3c(N)n[nH]c3c2)nc(N)n1 [GSK2291363]	%	16
COc1cc2nccc(Nc3ccc(OCc4ccc(NC(C)=O)cc4)cc3)c2cc1OC.Cl [GW440135]	%	2
CCn1c(-c2ccoc2)nc2cnccc21 [SB-733887]	%	15

Item O=C1NC(=O)C(c2ccccc2)=C1Nc1cccc(O)c1 [SB-390534] has what recorded %Inh?
0

Further, for COc1cc2ncn(-c3cc(OCc4ccncc4Br)c(C(N)=O)s3)c2cc1OC [GW854278] ?
19

Further, for Cc1nnc(-c2ccc(C)c(-c3ccc(C(=O)O)cc3)c2)o1 [GW608005] ?
30

Further, for CN1C(=O)C(Nc2ccccc2)=C(c2ccccc2)C1=O [SB-300079] ?
0

* * *

# Tested on: PHKG2
# studyConditions: concentration: 1 μM, replicates: in singlicate; n = 1
%Inh overview
The reply should be a number in %, with the unit left off.

smilesRepresentation	unitString	%Inh
CC(C)(C)c1ccc(C(=O)Nc2cn3cc(-c4ccccc4)ccc3n2)cc1	%	2
CCc1ccc(-c2ccc3c(c2)-c2nn(C)cc2S(=O)(=O)N3C)cc1	%	0
Nc1ncnc2c1ncn2-c1cccc2ccccc12	%	0

Item CCCNC(=O)Nc1ccc(Oc2ncnc3ccn(C)c23)cc1 has what recorded %Inh?
0

Further, for Nc1n[nH]c2nnc(-c3ccccc3)c(-c3ccccc3)c12 ?
0

Further, for O=C(Nc1n[nH]c2cc(-c3ccccc3F)ccc12)C1CC1 ?
0

Further, for O=C1NC(=O)C(c2ccccc2)=C1Nc1cccc(O)c1 ?
0

Further, for COc1cc2ncn(-c3cc(OCc4ccncc4Br)c(C(N)=O)s3)c2cc1OC ?
1

Further, for Nc1nc(N)c2nc(-c3ccccc3)[nH]c2n1 ?
0

Further, for COc1ccc(-n2cnc3c(N)ncnc32)cc1 ?
0

* * *

%Inh overview
# System: TESK1
# studyConditions: concentration: 1 μM, replicates: in singlicate; n = 1
The reply should be a number in %, with the unit left off.

compound	numericValue
Cl.c1ccc(Cn2cnc3cc(Nc4ncnc5ccccc45)ccc32)cc1	1
CCC(=O)c1c(-c2ccccc2)c2cc(Cl)ccc2c(=O)n1Cc1ccc(C(=O)O)cc1	6
COc1ccc(-c2cc3c(C)nc(N)nc3n([C@H]3CC[C@H](OCCO)CC3)c2=O)cn1	6
CN1C(=O)C(Nc2cc(Cl)c(O)c(Cl)c2)=C(c2ccc(Cl)cc2)C1=O	0
Cc1ccc(Oc2ccc(Nc3ncnc4cc[nH]c34)cc2C)cn1	13

Item COc1ccc(Nc2nccc(N3CCC(NS(=O)(=O)c4ccc(NC(C)=O)cc4)C3)n2)cc1 (stereo not shown) has what recorded %Inh?
16

Further, for CCC(=O)c1c(-c2ccccc2)c2cc(Cl)ccc2c(=O)n1Cc1cc(S(C)(=O)=O)n(CC(N)=O)n1 ?
0

Further, for Cc1nnc(-c2ccc(C)c(-c3ccc(C(=O)O)cc3)c2)o1 ?
0

Further, for CCc1ccc(-c2ccc3c(c2)-c2nn(C)cc2S(=O)(=O)N3C)cc1 ?
2

Further, for CCS(=O)(=O)c1ccc(OC)c(Nc2ncc(-c3ccc(F)cc3)o2)c1.Cl ?
1

Further, for COc1cccc(-n2cnc3c(N)ncnc32)c1 ?
17

Further, for Nc1nc(N)c2nc(-c3ccccc3)[nH]c2n1 ?
12

Further, for COc1cccc(C2=C(N(C)c3ccccc3)C(=O)NC2=O)c1 ?
24

* * *

%Inh overview
# Test system: ERBB4
# studyConditions: concentration: 1 μM, replicates: in singlicate; n = 1
The reply should be a number in %, with the unit left off.

Past entries and their recorded results:
smilesRepresentation	unitString	%Inh
Cc1ccc(Oc2ccc(Nc3ncnc4cc[nH]c34)cc2C)cn1	%	29
COc1ccc(-c2cc3c(C)nc(N)nc3n([C@H]3CC[C@H](O)CC3)c2=O)cn1	%	0
COC(=O)c1c(-c2ccccc2)c2cc(Br)ccc2c(=O)n1Cc1ccc(NC(=O)CCC(=O)O)cc1	%	0

Item Cc1nnc(-c2ccc(C)c(-c3ccc(C(=O)O)cc3)c2)o1 has what recorded %Inh?
76

Further, for O=C(Nc1n[nH]c2cc(-c3ccccc3F)ccc12)C1CC1 ?
18

Further, for CCS(=O)(=O)c1ccc(OC)c(Nc2ncc(-c3ccc(F)cc3)o2)c1.Cl ?
0

Further, for O=C(NCCNc1ccnc(Nc2ccc(F)cc2)n1)Nc1ccc2c(c1)OCO2 ?
7

Further, for CN1C(=O)C(Nc2cc(Cl)c(O)c(Cl)c2)=C(c2ccc(Cl)cc2)C1=O ?
0

Further, for Nc1nc(-c2ccccc2F)c(-c2ccnc3ccccc23)s1 ?
36
